assay: clinical; settings: male, human, in vivo, 900 mg
endpoint label: Cmax, Geometric Means (ng/mL)

- smiles entry: "CC#C[C@]1(O)CC[C@H]2[C@@H]3CCC4=CC(=O)CCC4=C3[C@@H](c3ccc(N(C)C)cc3)C[C@@]21C"
  measure unit: "ng/mL"
  readout number: 3550

---

assay: clinical; details: male, human, in vivo, 1200 mg
Attribute: AUC(0-t)

- compound: "CC#C[C@]1(O)CC[C@H]2[C@@H]3CCC4=CC(=O)CCC4=C3[C@@H](c3ccc(N)cc3)C[C@@]21C [RU 42848]"
  AUC(0-t) (ng·h/mL): 36500
- compound: "CN(C)c1ccc([C@H]2C[C@@]3(C)[C@@H](CC[C@@]3(O)C#CCO)[C@@H]3CCC4=CC(=O)CCC4=C32)cc1 [RU 42698]"
  AUC(0-t) (ng·h/mL): 16900
- compound: "CC#C[C@]1(O)CC[C@H]2[C@@H]3CCC4=CC(=O)CCC4=C3[C@@H](c3ccc(NC)cc3)C[C@@]21C [RU 42633]"
  AUC(0-t) (ng·h/mL): 45800

Values compiled from patent US12097210B2.
